System: UACC-62 melanoma
assayInfo: NCI-60 one-dose screen, 48 h (100 = growth as untreated, 0 = no growth, -100 = all killed)
measurementContext: 10 µM
The panel holds about 83,000 compounds, 20% with a hit somewhere; the sample as a whole holds those more often. The source made the active and inactive calls. How the source made its calls: active means growth percent below 10; inactive means the rest.
endpointLabel: growth

Give UACC-62 melanoma growth for the following compound: COc1ccc(Nc2cnc3cc(NS(=O)(=O)c4ccc(C)cc4)ccc3n2)cc1 65.3% (inactive)

Give UACC-62 melanoma growth for the following compound: NS(=O)(=O)c1ccc(N2N=C(c3ccccc3)CCC2=O)cc1 106% (inactive)

Give UACC-62 melanoma growth for the following compound: CC(=O)N[C@H](C(=O)N[C@@H](CCCNC(=N)N)C(=O)N[C@@H](CCCCN)C(=O)N[C@@H](CCCNC(=N)N)C(=O)N[C@]1(C)CCC/C=C\CCC[C@@](C)(C(=O)N[C@@H](CC(C)C)C(=O)N[C@@H](CC(C)C)C(=O)N[C@@H](CCC(N)=O)C(=O)N[C@@H](CCC(=O)O)C(=O)N[C@@H](CCCNC(=N)N)C(=O)N[C@@H](CCC(=O)O)C(=O)N[C@@H](CC(C)C)C(=O)N[C@H](C(=O)N[C@@H](CCC(=O)O)C(N)=O)C(C)C)NC(=O)[C@H](CCCNC(=N)N)NC(=O)[C@H](CC(C)C)NC1=O)C(C)C 105% (inactive)

Give UACC-62 melanoma growth for the following compound: Cc1cc(Cl)ccc1Nc1nc(C(F)(F)F)ccc1C(=O)N/N=C/c1cccc(O)c1 38.7% (inactive)

Give UACC-62 melanoma growth for the following compound: COc1cc2cc(Oc3ccc(NC(=O)c4cc(C(F)(F)F)cc(C(F)(F)F)c4)cc3)c(C)nc2cc1OC 33.2% (inactive)

Give UACC-62 melanoma growth for the following compound: C=CCN(CC=C)C(=O)[C@H](CC)[C@@H]1CC[C@@H](C)[C@@H]([C@H](C)[C@@H](O)[C@@H](C)C(=O)[C@H](CC)C2O[C@]3(C=CC(=O)[C@]4(CC[C@@](C)([C@H]5CC[C@](O)(CC)[C@H](C)O5)O4)O3)[C@H](C)C[C@@H]2C)O1 (stereo not given in full) 10.7% (inactive)

Give UACC-62 melanoma growth for the following compound: Cn1c2ccccc2c2c3[nH][nH]c(=O)c3c3c4ccccc4[nH]c3c21 -5.51% (active)

Give UACC-62 melanoma growth for the following compound: COc1cc(CNC(=O)C2CSC3(C)c4ccccc4C(=O)N23)cc(OC)c1OC (stereo not given) 92.5% (inactive)

Give UACC-62 melanoma growth for the following compound: CCC(c1ccc(OC)cc1)C(CC)c1ccc(O)c(CN2CCN(C)CC2)c1 (stereo not given) -30.5% (active)

Give UACC-62 melanoma growth for the following compound: COc1cc2c(cc1OC)C(C(CCCCCC(CCC(C)C)C1NCCc3cc(OC)c(OC)cc31)CCC(C)C)NCC2 (stereo not given) -91.5% (active)

Give UACC-62 melanoma growth for the following compound: Cc1ccc(NCCN(C)CC(C)O)c2c(=O)c3ccc(Cl)cc3sc12 (stereo not given) -68.7% (active)

Give UACC-62 melanoma growth for the following compound: CC1=CC2C(C(O)CC3(C)C2CC(C)C32OCOC23COCO3)C2(C)C/C(=C/O)C(=O)C=C12 (stereo not given) 30.4% (inactive)

Give UACC-62 melanoma growth for the following compound: Cc1[nH]c2ccccc2c1/C=N/Nc1ncnc2sc3c(c12)CCN(CC(=O)OC(C)(C)C)C3 81.9% (inactive)

Give UACC-62 melanoma growth for the following compound: CS(=O)(=O)c1nccc(-c2c(-c3cccc(OCCN4CCOCC4)c3)nc3sccn23)n1 89.1% (inactive)

Give UACC-62 melanoma growth for the following compound: Nc1c(Br)cc(Br)c2c1[nH]c(=O)c1ccccc12 87.6% (inactive)

Give UACC-62 melanoma growth for the following compound: COc1ccc(-c2nn(-c3cccc(Cl)c3)cc2/C=C2\NC(=S)N(c3ccc(Cl)cc3)C2=O)cc1 3.65% (active)

Give UACC-62 melanoma growth for the following compound: NNC(=O)Oc1c(Cl)cc(Cl)cc1[N+](=O)[O-] 104% (inactive)

Give UACC-62 melanoma growth for the following compound: COc1ccc(Cc2cnc(N)nc2N)cc1OC 96.9% (inactive)

Give UACC-62 melanoma growth for the following compound: OCC1OC(n2ccc3c(NO)ncnc32)C(O)C1O (stereo not given) -88.8% (active)

Give UACC-62 melanoma growth for the following compound: CCN(CC)CCOc1ccc2c(c1O)C(=O)c1ccccc1C2=O 90.5% (inactive)

Give UACC-62 melanoma growth for the following compound: S=C(NCc1ccccc1)NCc1ccccc1 102% (inactive)

Give UACC-62 melanoma growth for the following compound: CS(=O)(=O)c1nccc(-c2c(-c3cccc(OCCc4ccccc4)c3)nc3sccn23)n1 85.9% (inactive)

Give UACC-62 melanoma growth for the following compound: O=C(CSc1nnc(-c2ccc(Cl)cc2)o1)Nc1ccc(C(=O)/C=C/c2ccc(Cl)cc2)cc1 87.6% (inactive)

Give UACC-62 melanoma growth for the following compound: CCNc1nc(C(F)(F)F)nc2c1sc(=S)n2-c1ccccc1 93.9% (inactive)

Give UACC-62 melanoma growth for the following compound: Cc1cc(C(C#N)c2ccc(Cl)cc2)c(Cl)cc1NC(=O)c1cc(I)cc(I)c1O (stereo not given) 11.5% (inactive)

Give UACC-62 melanoma growth for the following compound: CCOS(=O)(=O)c1c(C(C)C)cc(C(C)C)cc1C(C)C 98.4% (inactive)

Give UACC-62 melanoma growth for the following compound: CNC(=O)c1cc(Oc2ccc3c(c2)sc2nc(-c4ccc(N)cc4)cn23)ccn1 41.9% (inactive)

Give UACC-62 melanoma growth for the following compound: CCc1ccc(C2=NN(c3ccc(S(C)(=O)=O)cc3)C(=O)CC2)cc1 38% (inactive)

Give UACC-62 melanoma growth for the following compound: COc1ccc(-c2n[nH]nc2-c2cc(OC)c3c(c2OC)OCO3)cc1 40.6% (inactive)

Give UACC-62 melanoma growth for the following compound: COc1ccc(-c2cc(-c3ccc(OC)c(OC)c3)nc(SCCCC(=O)NO)n2)cc1 -55.2% (active)
